assayed.target: Alpha-2C adrenergic receptor (Homo sapiens) (UniProt P18825)
Sequence (P18825 whole entry, looked up): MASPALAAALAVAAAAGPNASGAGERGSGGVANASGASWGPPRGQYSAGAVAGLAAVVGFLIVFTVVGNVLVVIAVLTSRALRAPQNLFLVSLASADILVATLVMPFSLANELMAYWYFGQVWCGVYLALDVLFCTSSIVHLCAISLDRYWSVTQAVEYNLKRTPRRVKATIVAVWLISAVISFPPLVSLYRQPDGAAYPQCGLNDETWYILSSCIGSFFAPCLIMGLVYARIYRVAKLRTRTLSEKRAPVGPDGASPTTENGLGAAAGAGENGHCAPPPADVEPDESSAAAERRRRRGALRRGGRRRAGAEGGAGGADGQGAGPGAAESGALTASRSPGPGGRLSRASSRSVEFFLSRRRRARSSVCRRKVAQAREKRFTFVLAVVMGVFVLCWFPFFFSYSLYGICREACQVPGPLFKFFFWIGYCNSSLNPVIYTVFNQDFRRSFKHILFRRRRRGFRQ
run.description: modulators of alpha2C/GIRK thallium flux, primary screen, cell-based, HEK293 alpha2C/GIRK1/2 (AID 624);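 note: slope of fluorescence ratio to pre-addition baseline per second over 15 to 24 s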
condition.parameters: thallium flux BTC fluorescence, at 10 µM, actives lie on both sides
Assign met to entries whose slope meets or exceeds 0.006; assign not met to the rest.

Check out these entries, answers already filled in.
- molecule: "COC(=O)C(NC(C)=O)(Nc1ccc(Br)cc1)C(=O)OC"
  class.label: "not met"
- molecule: "CCc1cc2c(=O)c(-c3cscn3)coc2cc1O"
  class.label: "not met"
- molecule: "CCN(CC)CCn1c(O)c(N=O)c2ccccc21"
  class.label: "met"
- molecule: "Cn1c(SCC(=O)N2CCOCC2)nnc1-c1ccc(Cl)cc1Cl"
  class.label: "met"
- molecule: "C=CCOC(=O)C1=C(C)OC(N)=C(C#N)C1c1ccoc1 (stereo unspecified)"
  class.label: "not met"

In: Does the reported slope for Cc1ncc([N+](=O)[O-])n1CC(O)CCl (stereo unspecified) fall at or above the 0.006 mark?
Out: not met
